Known IC50 (ug/ml), IL-8 induction assay of a selection of binders
Biological target: endogenous human tissue factor on MDA-MB-231 breast cancer cells (human, UniProt P13726 33-295)
Assay: cell-based or functional assay
Please reply with the bare figure in µg/mL and do not write the unit itself.

Solved cases below.
[
  {
    "binder": "M1611 (antibody, V domains shown, complete MAb; FR4 is its own entry; also called H128/L3) VH: EVQLVQSGAEVKKPGESLRISCKGSGYTFGPYWIEWVRQMPGKGLEWMGDILPGSGYTTYSPSFQGHVTISADKSISTAYLQWSSLKASDTAMYYCARSGYYGNSGFAYWGQGTLVTVSS VL: DIVMTQTPLSLPVTPGEPASISCKSSQSLLSSGNQKNYLTWYLQKPGQSPQLLIYWASTRESGVPDRFSGSGSGTDFTLKISRVEAEDVGVYYCQNDYTYPLTFGQGTKLEIK",
    "assay_result": 0.398
  },
  {
    "binder": "M1607 (antibody, V domains shown, complete MAb; FR4 is its own entry; also called H189/L3; TF7M1607) VH: EVQLVQSGAEVKKPGESLRISCKGSGFTFITYWIAWVRQMPGKGLEWMGDILPASSSTNYSPSFQGHVTISADKSISTAYLQWSSLKASDTAMYYCARSGYYGNSGFAYWGQGTLVTVSS VL: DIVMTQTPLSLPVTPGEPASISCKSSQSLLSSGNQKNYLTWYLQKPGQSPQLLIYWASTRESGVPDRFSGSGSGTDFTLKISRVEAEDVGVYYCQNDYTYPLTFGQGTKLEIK",
    "assay_result": 0.395
  }
]

(Q) Endpoint output: IC50 (ug/ml), IL-8 induction assay of M1, 10H10 mouse-human chimera (antibody, V domains shown, also called H13/L1; parent chimeric antibody) VH: QVHLQQSGAELMKPGASVKISCKASGYTFITYWIEWVKQRPGHGLEWIGDILPGSGSTNYNENFKGKATFTADSSSNTAYMQLSSLTSEDSAVYYCARSGYYGNSGFAYWGQGTLVTVSA VL: DIVMTQSPSSLTVTAGEKVTMSCKSSQSLLSSGNQKNYLTWYQQIPGQPPKLLIYWASTRESGVPDRFTGSGSGTDFTLTINSVQAEDLAVYYCQNDYTYPLTFGAGTKLELK . Value?
(A) 0.527

Provenance of the data: patent US20120237528A1
